Source of measurements: PubChem BioAssay (NCI)

Tested on: EKVX NSCLC
Assay: NCI tumour cell line growth inhibition, 384-well format
property.label: GI50

compound	property.label	reported
Cc1[nH]nc(C(F)(F)F)c1Cc1sc2c(c1C(=O)N1C[C@](C)(O)CO1)c(=O)n(C)c(=O)n2C(C)C	GI50	> 100 µM
COc1nn(C)cc1Nc1nccc(-c2c[nH]c3c(NC(=O)[C@@H](C)N4CCN(C)CC4)cccc23)n1	GI50	18.7 µM
Cc1c(C(=O)Nc2ccc(N3C[C@@H](C)O[C@@H](C)C3)nc2)cccc1-c1ccc(OC(F)(F)F)cc1	GI50	5.38 µM

Which GI50 value belongs to O=C(Nc1cccc(Br)c1)Oc1cccc2cccnc12 ? 2.39 µM
